Assay: Evaluation of coloring compound for lightfastness (sun tester irradiation, color difference ΔE)
Format: physicochemical
Conditions: ΔE after sun tester irradiation, 765 w/m^2, 50° C., 20 hours, on CLC color copy paper
ENDPOINT NAME: Lightfastness

Below: 4 molecules and their reported Lightfastness.
>>> recorded_measurement("CCCCc1ccc(N=Nc2c(O)[nH]c(=O)c(C#N)c2C)cc1 [E1, reference compound]")
"C (ΔE is 30 or more)"
>>> recorded_measurement("CCCCc1c(N=Nc2ccccc2C(=O)N2CCC(CCC)CC2)c(O)[nH]c(=O)c1C#N")
"A (ΔE is less than 15)"
>>> recorded_measurement("Cc1c(N=Nc2ccc(N(C)C)cc2)c(O)n(CCCl)c(=O)c1C#N [E4, reference compound]")
"C (ΔE is 30 or more)"
>>> recorded_measurement("Cc1c(N=Nc2ccccc2C(=O)N(Cc2ccccc2)Cc2ccccc2)c(O)[nH]c(=O)c1C#N")
"A (ΔE is less than 15)"

Turning now to a further record.
Fill in: Lightfastness of CCCCC(CC)CNS(=O)(=O)c1ccc(N=Nc2c(C)c(C#N)c(=O)n(CCCC)c2O)cc1 (centres unmarked) [E3, reference compound] is ___
C (ΔE is 30 or more)

---

Assay: Evaluation of coloring compound for lightfastness (sun tester irradiation, color difference ΔE)
Assay type: physicochemical
Settings: ΔE after sun tester irradiation, 765 w/m^2, 50° C., 20 hours, on CLC color copy paper
Description: <Evaluation of Coloring Compound for Lightfastness> A coloring compound was dissolved in a mixed liquid prepared by mixing tetrahydrofuran and cyclohexanone at a volume ratio of 1:1, whereby a 0.04-mol/l coloring compound solution was prepared. […] The test paper was analyzed with a spectrophotometer (SPECTROLINO, manufactured by Gretag Macbeth) before and after the irradiation test. […] A color difference (ΔE) was calculated from the following equation. […]
ENDPOINT NAME: Lightfastness

>>> recorded_measurement("CCCCc1c(N=Nc2ccccc2C(=O)NCC(CC)CCCC)c(O)[nH]c(=O)c1C#N (stereo not shown)")
"A (ΔE is less than 15)"
>>> recorded_measurement("CCCCC(CC)CN(CC(CC)CCCC)C(=O)c1ccc(N=Nc2c(O)[nH]c(=O)c(C#N)c2C)cc1 (stereo not shown) [E10, reference compound]")
"C (ΔE is 30 or more)"
>>> recorded_measurement("CCCCn1c(O)c(N=Nc2ccc(C(=O)OC)cc2)c(C)c(C#N)c1=O [E5, reference compound]")
"C (ΔE is 30 or more)"
>>> recorded_measurement("CCCCC(CC)CN(CC(CC)CCCC)C(=O)c1cccc(N=Nc2c(O)[nH]c(=O)c(C#N)c2C)c1 (stereo not shown) [E9, reference compound]")
"A (ΔE is less than 15)"
>>> recorded_measurement("CCCCn1c(O)c(N=Nc2ccc(Cl)cc2)c(C)c(C#N)c1=O [E2, reference compound]")
"C (ΔE is 30 or more)"
>>> recorded_measurement("CCCCn1c(O)c(N=Nc2ccccc2[N+](=O)[O-])c(C)c(C#N)c1=O [E8, reference compound]")
"C (ΔE is 30 or more)"

State the recorded Lightfastness for every item in the following list.
1. CCCCC(CC)CN(CC(CC)CCCC)C(=O)c1ccccc1/N=N/c1c(O)[nH]c(=O)c(C#N)c1C (stereo not shown) [D1]
2. CCCCn1c(O)c(N=Nc2cccc(C)c2)c(C)c(C#N)c1=O [E7, reference compound]

1. A (ΔE is less than 15)
2. C (ΔE is 30 or more)
